System under test: Serum samples collected at week 16 from patients immunized with UBI AD vaccine (UB-311)
Method description: comp. ELISA, serum P103
Value type: IC50-based peak height
Answers are plain numbers.

Solved cases (5 shown):
1. ISEVKMDAEF [Aβ-6-4 or APP 770 (I666-F675)]; 0
2. AEFRHDSGYE [Aβ2-11 or APP 770 (A673-E682)]; 0
3. SGYEVHHQKL [Aβ8-17 or APP 770 (S679-L688)]; 0
4. QKLVFFAEDV [Aβ15-24 or APP 770 (Q686-V695)]; 0
5. RHDSGYEVHH [Aβ5-14 or APP 770 (R676-H685)]; 0

Field: IC50-based peak height. Fill in for each record below.
1. VHHQKLVFFA [Aβ12-21 or APP 770 (V683-A692)]
2. HHQKLVFFAE [Aβ13-22 or APP 770 (H684-E693)]
3. DSGYEVHHQK [Aβ7-16 or APP 770 (D678-K687)]
4. EEISEVKMDA [Aβ-8-2 or APP 770 (E664-A673)]

## Result
[0, 0, 0, 0]

Field: IC50-based peak height. Fill in for each record below.
1. EISEVKMDAE [Aβ-7-3 or APP 770 (E665-E674)]
2. SEVKMDAEFR [Aβ-5-5 or APP 770 (S667-R676)]
3. EFRHDSGYEV [Aβ3-12 or APP 770 (E674-V683)]

## Result
0
0
0
